Values were extracted from patent US20100152188A1.

# Tested on: HCT116
# assayDetails: Anti-cancer screen (MTT), HCT116
# Format: cell-based
# recordedConditions: Homo sapiens, HCT-116, 48 hours with compound, tested at 0.01-100 µM
quantityKind: GI50 (µM)
# output: bare number, implied unit µM

These solved cases illustrate the format of a correct answer.
O=C(NCc1ccc(C(=O)NO)cc1)OCc1c(F)c(F)c(F)c(F)c1F : 0.98
O=C(NCc1ccc(C(=O)NO)cc1)OCc1ccsc1 : 7
O=C(NCc1ccc(C(=O)NO)cc1)OCC1COc2ccccc2O1 (centres unmarked) : 5

QUERY: Quick one: GI50 for `O=C(CCCCCNC(=O)Cc1csc(NC(=O)OCc2c(F)c(F)c(F)c(F)c2F)n1)NO` ?
RESULT: 23
